Target: T1, cynomolgus monkey 5T4 antigen (cynomolgus monkey, UniProt Q4R8Y9 35-420)
T1 construct: whole, on cells; also called cyno 5T4
T1 sequence (looked up): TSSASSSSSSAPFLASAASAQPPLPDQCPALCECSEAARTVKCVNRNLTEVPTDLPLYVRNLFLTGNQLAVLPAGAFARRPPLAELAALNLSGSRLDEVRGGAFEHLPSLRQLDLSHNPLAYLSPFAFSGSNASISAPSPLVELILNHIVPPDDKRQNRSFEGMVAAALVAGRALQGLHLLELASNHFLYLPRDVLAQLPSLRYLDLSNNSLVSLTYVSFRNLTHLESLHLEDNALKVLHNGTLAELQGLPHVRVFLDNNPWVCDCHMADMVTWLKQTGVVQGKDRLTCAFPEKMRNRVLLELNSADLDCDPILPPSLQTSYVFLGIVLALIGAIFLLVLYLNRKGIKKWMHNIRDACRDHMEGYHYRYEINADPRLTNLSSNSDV
Assay: flow cytometry, CHOZN cells expressing cyno 5T4
Answer each item with its documented fold improvement of binding compared to H8 on cyno 5T4.
Write the answer as a number in fold, unit excluded.

# get_value(readout='fold improvement of binding compared to H8 on cyno 5T4', item= chimeric anti-5T4 monoclonal antibody 811 (antibody, human IgG1, V domains shown) VH: QSVEESGGRLVTPGTSLTLTCTASGFSLSTYAMIWVRQAPGKGLEWIGIINSSGYTYYANWAKGRFTISKTSTTVDLKITSPTTEDTATYFCARGNAGISYDVSFNLWGQGTLVTVSS VL: AYDMTQTPASVEAGVGGTVTINCQASESISSWLAWYQQKPGQPPNLLIYEASKLASGVPSRFSGSGSGTEFTLTISGVESADAATYYCQQGWTSSNIDNAFGGGTEVVVK ) 32

Recorded fold improvement of binding compared to H8 on cyno 5T4 of chimeric anti-5T4 monoclonal antibody 847 (antibody, human IgG1, V domains shown) VH: QSVEESGGRLVTPGTPLTLTCTVSGFSLSSYDMSWVRQAPGKGLEYIGYINSDGSAYYASWAKGRFTISKTSSTTVDLKITSPTTEDTATYFCARDAGSTYLYGMDPWGPGTLVTVSS VL: DVVMTQTPASVSEPVGGTVTINCQASQSIYSYLAWYQQKPGQRPKLLIYAASTLASGVSSRFKGSGSGTQFTLTISDLESADAATYYCQCTYYGGTFNTFGGGTEVVVK , please. 32

Quick one: fold improvement of binding compared to H8 on cyno 5T4 for chimeric anti-5T4 monoclonal antibody 834 (antibody, human IgG1, V domains shown) VH: QSVEESGGRLVTPGTPLTLTCTVSGFSLSTYSMSWVRQAPGKGLEWIGVISRGGSAYYASWAKGRFTISKTSTTVDLKVTSPTTEDTATYFCARGAISSGYYVYDGMDLWGPGTLVTVSS VL: DIVMTQTPGSVEAAVGGTVTIKCQASESISSYLAWYQQKPGQPPKFLIYSASTLASGVPSRFKGSGSGTEFTLTISDLESADAATYYCQCTDYGSDYMGAFGGGTGVVVK ? 32

Reference source for all entries: patent US20210317231A1
